meta.source: the NTF2 design screens of Basanta et al. (2020)

experiment: protease stability score; higher = more stable; yeast display proteolysis, trypsin and chymotrypsin;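 further: relative to predicted unfolded state with 0 unfolded-like and 1 meaning tenfold more protease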
REPORTED ENDPOINT: protease stability score

# MONOMER SEQUENCE, REPORTED ENDPOINT, VAL
records = [
    ("SEEEQKLRNMAKLTFKDLITGDEEHFEKLADPHTRFNVGNYERHGMRLHLEWYLEWLTRIKGLKLRLELHDVRVVDGRAISDTTLDVHIGDKHIHQDIKLLLVIVDGRIKELEIRFV", "protease stability score", 1.22),
    ("DEDVELFELIFKVMIELLETGNEELLRHLADPHTRVHINGVDFHGMEDWLKFLRHIRIEDIKIRHVSVVNGVMHAETETLMHVNGRDKRVDTRVTAIKINGRWVLKHVQYK", "protease stability score", 2.51),
    ("REEEERLKDLERVMRELWRTGDEREMSRNADPHVKLSVGDKEFHGRELFTKWASRVDHYDHLIIRDIETQGDKVRMYVETEMDIDGKDVKTESFILAVKIDGRWILRSLELR", "protease stability score", 0.387),
    ("TEEEEILHEELRRHKEALETGDEDRLRHLIDPRARMDVNGREFHGMEHIVHFLVEFLLKFKNVRFEIKDFTKIGEYIYVDIHIIVDGRRHHMTVVALKVDGRWRNRHLHID", "protease stability score", 1.18),
    ("SEEEEEIERYVQHLVHNILTGDWEMIQELADPNAKIDIDGRHFHGREQFVDLMLRLIESLGIDHLRLTHVRIQGDYMELHVEVHVGDKRVELESFATKIDGRWFVKSFTKR", "protease stability score", 1.97),
]
